system tested: UniProt P08253
Sequence (P08253 110-660 limits assumed): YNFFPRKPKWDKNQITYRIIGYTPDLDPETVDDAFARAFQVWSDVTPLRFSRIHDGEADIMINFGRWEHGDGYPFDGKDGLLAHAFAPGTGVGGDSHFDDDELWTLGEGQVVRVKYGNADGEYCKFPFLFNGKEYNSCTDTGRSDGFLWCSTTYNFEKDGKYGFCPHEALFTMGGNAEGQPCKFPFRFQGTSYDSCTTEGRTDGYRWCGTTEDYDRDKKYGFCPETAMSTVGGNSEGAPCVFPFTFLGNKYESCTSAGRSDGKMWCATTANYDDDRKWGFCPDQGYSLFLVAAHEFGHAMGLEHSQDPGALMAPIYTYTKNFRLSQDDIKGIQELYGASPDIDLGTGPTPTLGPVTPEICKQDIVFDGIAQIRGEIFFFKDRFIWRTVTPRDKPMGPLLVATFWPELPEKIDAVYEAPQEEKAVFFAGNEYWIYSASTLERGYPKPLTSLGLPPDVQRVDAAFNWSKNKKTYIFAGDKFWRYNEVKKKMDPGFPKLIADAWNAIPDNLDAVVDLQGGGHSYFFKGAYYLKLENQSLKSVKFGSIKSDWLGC
assay method text: Inhibition of MMP2 in inflamed tissue isolated from chronic periodontitis patient at 500 ug/l after 15 to 30 mins by gelatin zymographic method relative to control
Outcome label depends on inhibition relative to 90%: at/above gives TRUE, below gives FALSE.

Request: Is it the case that CCOC(=O)C1=C(C)NC(=S)NC1c1cc(=O)oc2cc(C)ccc12 (stereo unspecified) has inhibition reaching or exceeding 90%?
Result: FALSE

Request: Confirm if inhibition reported for the molecule `CN(C)[C@@H]1C(O)=C(C(N)=O)C(=O)[C@@]2(O)C(O)=C3C(=O)c4c(O)cccc4[C@@](C)(O)[C@H]3C[C@@H]12` is 90% or above.
Result: TRUE

Request: Confirm if inhibition reported for the molecule CCOC(=O)C1=C(C)NC(=O)NC1c1cc(=O)oc2ccc(Cl)cc12 (stereo unspecified) is 90% or above.
Result: FALSE

Request: Entry CCOC(=O)C1=C(C)NC(=O)NC1c1cc(=O)oc2cc(C)ccc12 (stereo unspecified) : is its inhibition no less than 90%?
Result: TRUE

Request: Entry CCOC(=O)C1=C(C)NC(=S)NC1c1cc(=O)oc2ccc(OC)cc12 (stereo unspecified) : is its inhibition no less than 90%?
Result: FALSE

Request: Assess whether reported inhibition for CCOC(=O)C1=C(C)NC(=O)NC1c1cc(=O)oc2ccc(OC)cc12 (stereo unspecified) sits at 90% or higher.
Result: TRUE

Request: For this molecule, is measured inhibition 90% or higher? CCOC(=O)C1=C(C)NC(=O)NC1c1cc(=O)oc2c1ccc1ccccc12 (stereo unspecified)
Result: TRUE

Request: Is the recorded value of inhibition equal to or greater than 90% for this molecule? CCOC(=O)C1=C(C)NC(=S)NC1c1cc(=O)oc2ccc(C)cc12 (stereo unspecified)
Result: FALSE

Request: Test whether the molecule CCOC(=O)C1=C(C)NC(=S)NC1c1cc(=O)oc2ccc(Cl)cc12 (stereo unspecified) records inhibition of 90% or higher.
Result: FALSE

---

Tested on: Escherichia coli
assay method text: Antibacterial activity against Escherichia coli ATCC 25922 after 24 hrs by broth microdilution method
Type: functional
cond: ATCC 25922, 24 h
Answer each item with its documented log10(MIC).
Parameter value (number): base-10 log of MIC in µg/mL.

Request: Assign log10(MIC) to the following record: CCOC(=O)C1=C(C)NC(=S)NC1c1cc(=O)oc2ccc(Cl)cc12 (stereo not given)
Result: -0.40

Request: Respond only with log10(MIC) recorded for CCOC(=O)C1=C(C)NC(=O)NC1c1cc(=O)oc2c1ccc1ccccc12 (stereo not given)
Result: 1.40

Request: Complete the entry with log10(MIC) for CCOC(=O)C1=C(C)NC(=O)NC1c1cc(=O)oc2cc(C)ccc12 (stereo not given)
Result: 1.10

Request: Look up log10(MIC) of CCOC(=O)C1=C(C)NC(=S)NC1c1cc(=O)oc2c1ccc1ccccc12 (stereo not given) and report it.
Result: -0.40

Request: For the compound CCOC(=O)C1=C(C)NC(=O)NC1c1cc(=O)oc2ccc(C)cc12 (stereo not given) , give its reported log10(MIC).
Result: 1.70

Request: // Input: CCOC(=O)C1=C(C)NC(=S)NC1c1cc(=O)oc2ccc(C)cc12 (stereo not given) . Output its log10(MIC) only.
Result: 0.20

Request: Consider the compound CCOC(=O)C1=C(C)NC(=O)NC1c1cc(=O)oc2ccc(Cl)cc12 (stereo not given) . State its measured log10(MIC).
Result: 1.40

Request: Report log10(MIC), nothing else, for this compound: CCOC(=O)C1=C(C)NC(=S)NC1c1cc(=O)oc2cc(C)ccc12 (stereo not given)
Result: 1.40

Request: Quick one: give measured log10(MIC) for CCOC(=O)C1=C(C)NC(=S)NC1c1cc(=O)oc2ccc(OC)cc12 (stereo not given)
Result: 1.40

Request: Kindly indicate its recorded log10(MIC). Item: CCOC(=O)C1=C(C)NC(=O)NC1c1cc(=O)oc2ccc(OC)cc12 (stereo not given)
Result: 1.70
